- Tested on: Streptomyces fradiae A54145.1, A54145.2 and A54145.3
- measurement_notes: Resistance to antibiotics, sensitivity discs on seeded ISP No. 2 agar plates
- conditions_used: identical for A54145.1, A54145.2, A54145.3; lincomycin 2 μg, penicillin G 10 units, bacitracin 10 units, cephalothin 30 μg, gentamicin 10 μg, neomycin 30 μg, oleandomycin 15 μg, rifampin 5 μg, streptomycin 10 μg, tetracycline 30 μg, tobramycin 10 μg, vancomycin 30 μg
Positions of bridges follow the written chain, without caps; N, C: chain ends. Non-standard residues stand in square brackets, D forms with d. Residues, ends and D or L forms follow the SMILES beside them. *: point of attachment. Ileψ(thiazoline)Cys = CC[C@H](C)[C@H](N)C1=N[C@H](C(=O)*)CS1; dOrn = NCCC[C@@H](N)C(=O)O
quantity_kind: resistance or sensitivity of the strains to antibiotic discs

NC[C@H]1O[C@H](O[C@H]2[C@H](O)[C@@H](O[C@H]3O[C@H](CO)[C@@H](O)[C@H](N)[C@H]3O)[C@H](N)C[C@@H]2N)[C@H](N)C[C@@H]1O = sensitive
CN(C)[C@@H]1C(O)=C(C(N)=O)C(=O)[C@@]2(O)C(O)=C3C(=O)c4c(O)cccc4[C@@](C)(O)[C@H]3C[C@@H]12 = sensitive
CC[C@H](C)[C@H](N)C1=N[C@H](C(=O)N[C@@H](CC(C)C)C(=O)N[C@H](CCC(=O)O)C(=O)N[C@H](C(=O)N[C@H]2CCCCNC(=O)[C@H](CC(N)=O)NC(=O)[C@@H](CC(=O)O)NC(=O)[C@H](Cc3cnc[nH]3)NC(=O)[C@@H](Cc3ccccc3)NC(=O)[C@H]([C@@H](C)CC)NC(=O)[C@@H](CCCN)NC2=O)[C@@H](C)CC)CS1 [bacitracin] ({Ileψ(thiazoline)Cys}-L[dE]IK[dOrn]I[dF]H[dD]N; lactam 4-C) = sensitive

---

// values below are reported MIC
- Tested on: Streptococcus sp. group 2041
- measurement_notes: MIC, conventional agar-dilution assay
- Format: cell-based
Starred links: 1 amine or outer side, 2 acyl side, 3 side chain; linkers in the order of their positions; H or OH if unused. Positions of bridges follow the written chain, without caps; N, C: chain ends. Non-standard residues stand in square brackets, D forms with d. Residues, ends and D or L forms follow the SMILES beside them. ξ: configuration not given here. *: point of attachment. ξAsp(3ξ-OMe) = COC(C(=O)O)C(N)C(=O)O; X1 = CC(CC(=O)O)C(N[*:1])C(=O)[*:2]; ξAsn(3ξ-OH) = NC(=O)C(O)C(N)C(=O)O; Decanoyl = CCCCCCCCCC(=O)*; X3 = CCC(C)CCCCCCC(=O)*; X2 = CC(C)CCCCCCC(=O)*; Sar = CNCC(=O)O
quantity_kind: MIC (µg/mL)

CCC(C)C1NC(=O)C(CCC(=O)O)NC(=O)C(CC(N)=O)NC(=O)CNC(=O)C(C(OC)C(=O)O)NC(=O)C(CCCCN)NC(=O)C(CC(=O)O)NC(=O)C(C)NC(=O)CN(C)C(=O)C(NC(=O)C(NC(=O)C(CCC(=O)O)NC(=O)C(Cc2c[nH]c3ccccc23)NC(=O)CCCCCCC(C)C)C(O)C(N)=O)C(C)OC1=O (centres unmarked) [Component A54145A] (X2-WE[ξAsn(3ξ-OH)]T[Sar]ADK[ξAsp(3ξ-OMe)]GNEI; ester 4-C; configuration not given here) = 64
CCC(C)C1NC(=O)C(C(C)CC(=O)O)NC(=O)C(CC(N)=O)NC(=O)CNC(=O)C(C(OC)C(=O)O)NC(=O)C(CCCCN)NC(=O)C(CC(=O)O)NC(=O)C(C)NC(=O)CN(C)C(=O)C(NC(=O)C(NC(=O)C(CCC(=O)O)NC(=O)C(Cc2c[nH]c3ccccc23)NC(=O)CCCCCCC(C)C)C(O)C(N)=O)C(C)OC1=O (centres unmarked) [Component A54145B1] (X2-WE[ξAsn(3ξ-OH)]T[Sar]ADK[ξAsp(3ξ-OMe)]GN[X1]I; ester 4-C; configuration not given here) = 32
CCCCCCCCCC(=O)NC(Cc1c[nH]c2ccccc12)C(=O)NC(CCC(=O)O)C(=O)NC(C(=O)NC1C(=O)N(C)CC(=O)NC(C)C(=O)NC(CC(=O)O)C(=O)NC(CCCCN)C(=O)NC(C(OC)C(=O)O)C(=O)NCC(=O)NC(CC(N)=O)C(=O)NC(CCC(=O)O)C(=O)NC(C(C)CC)C(=O)OC1C)C(O)C(N)=O (centres unmarked) [Component A54145A1] (Decanoyl-WE[ξAsn(3ξ-OH)]T[Sar]ADK[ξAsp(3ξ-OMe)]GNEI; ester 4-C; configuration not given here) = 32
CCC(C)CCCCCCC(=O)NC(Cc1c[nH]c2ccccc12)C(=O)NC(CCC(=O)O)C(=O)NC(C(=O)NC1C(=O)N(C)CC(=O)NC(C)C(=O)NC(CC(=O)O)C(=O)NC(CCCCN)C(=O)NC(C(OC)C(=O)O)C(=O)NCC(=O)NC(CC(N)=O)C(=O)NC(CCC(=O)O)C(=O)NC(C(C)CC)C(=O)OC1C)C(O)C(N)=O (centres unmarked) [Component A54145D] (X3-WE[ξAsn(3ξ-OH)]T[Sar]ADK[ξAsp(3ξ-OMe)]GNEI; ester 4-C; configuration not given here) = 32
CCC(C)CCCCCCC(=O)NC(Cc1c[nH]c2ccccc12)C(=O)NC(CCC(=O)O)C(=O)NC(C(=O)NC1C(=O)N(C)CC(=O)NC(C)C(=O)NC(CC(=O)O)C(=O)NC(CCCCN)C(=O)NC(C(OC)C(=O)O)C(=O)NCC(=O)NC(CC(N)=O)C(=O)NC(C(C)CC(=O)O)C(=O)NC(C(C)CC)C(=O)OC1C)C(O)C(N)=O (centres unmarked) [Component A54145E] (X3-WE[ξAsn(3ξ-OH)]T[Sar]ADK[ξAsp(3ξ-OMe)]GN[X1]I; ester 4-C; configuration not given here) = 4
CCC(C)CCCCCCC(=O)NC(Cc1c[nH]c2ccccc12)C(=O)NC(CCC(=O)O)C(=O)NC(C(=O)NC1C(=O)N(C)CC(=O)NC(C)C(=O)NC(CC(=O)O)C(=O)NC(CCCCN)C(=O)NC(C(OC)C(=O)O)C(=O)NCC(=O)NC(CC(N)=O)C(=O)NC(C(C)CC(=O)O)C(=O)NC(C(C)C)C(=O)OC1C)C(O)C(N)=O (centres unmarked) [Component A54145C] (X3-WE[ξAsn(3ξ-OH)]T[Sar]ADK[ξAsp(3ξ-OMe)]GN[X1]V; ester 4-C; configuration not given here) = 4
CCCCCCCCCC(=O)NC(Cc1c[nH]c2ccccc12)C(=O)NC(CCC(=O)O)C(=O)NC(C(=O)NC1C(=O)N(C)CC(=O)NC(C)C(=O)NC(CC(=O)O)C(=O)NC(CCCCN)C(=O)NC(C(OC)C(=O)O)C(=O)NCC(=O)NC(CC(N)=O)C(=O)NC(C(C)CC(=O)O)C(=O)NC(C(C)CC)C(=O)OC1C)C(O)C(N)=O (centres unmarked) [Component A54145B] (Decanoyl-WE[ξAsn(3ξ-OH)]T[Sar]ADK[ξAsp(3ξ-OMe)]GN[X1]I; ester 4-C; configuration not given here) = 8
